Items are presented alongside their recorded GI50.
tested on: TC71; assay: Cytotoxicity, resazurin fluorescence, TC71; type: cell-based; details: Homo sapiens, TC-71; Table 6; 72 hr; EWS cells

Compound	Property measured	Recorded value
COC(C(=NOCCNC(=O)c1[nH]c2ccc(Cl)cc2c1-c1c(C)noc1C)C(O)C(C)O)C1Cc2cc3cc(OC4CC(OC5CC(O)C(O)C(C)O5)C(O)C(C)O4)c(C)c(O)c3c(O)c2C(=O)C1OC1CC(OC2CC(OC3CC(C)(O)C(O)C(C)O3)C(O)C(C)O2)C(O)C(C)O1 (centres unmarked)	GI50	10.7 nM

Query string: Identify measured GI50 corresponding to `CO[C@H](C(=NOCCNC(=O)c1cc2cc(OC(F)(F)F)ccc2[nH]1)[C@@H](O)[C@@H](C)O)[C@@H]1Cc2cc3cc(O[C@H]4C[C@@H](O[C@H]5C[C@@H](O)[C@H](O)[C@@H](C)O5)[C@H](O)[C@@H](C)O4)c(C)c(O)c3c(O)c2C(=O)[C@H]1O[C@H]1C[C@@H](O[C@H]2C[C@@H](O[C@H]3C[C@](C)(O)[C@H](O)[C@@H](C)O3)[C@@H](O)[C@@H](C)O2)[C@H](O)[C@@H](C)O1`
Result string: 19.5 nM

Query string: Identify measured GI50 corresponding to `CO[C@H](C(=NOCCNC(=O)c1cc2cc(F)ccc2[nH]1)[C@@H](O)[C@@H](C)O)[C@@H]1Cc2cc3cc(O[C@H]4C[C@@H](O[C@H]5C[C@@H](O)[C@H](O)[C@@H](C)O5)[C@H](O)[C@@H](C)O4)c(C)c(O)c3c(O)c2C(=O)[C@H]1O[C@H]1C[C@@H](O[C@H]2C[C@@H](O[C@H]3C[C@](C)(O)[C@H](O)[C@@H](C)O3)[C@@H](O)[C@@H](C)O2)[C@H](O)[C@@H](C)O1`
Result string: 258 nM

Query string: Identify measured GI50 corresponding to COC(C(=NOCCNC(=O)c1cc2cc(Br)ccc2[nH]1)C(O)C(C)O)C1Cc2cc3cc(OC4CC(OC5CC(O)C(O)C(C)O5)C(O)C(C)O4)c(C)c(O)c3c(O)c2C(=O)C1OC1CC(OC2CC(OC3CC(C)(O)C(O)C(C)O3)C(O)C(C)O2)C(O)C(C)O1 (centres unmarked)
Result string: 152 nM

Query string: Identify measured GI50 corresponding to COC(C(=NOCc1cc2ccccc2[nH]1)C(O)C(C)O)C1Cc2cc3cc(OC4CC(OC5CC(O)C(O)C(C)O5)C(O)C(C)O4)c(C)c(O)c3c(O)c2C(=O)C1OC1CC(OC2CC(OC3CC(C)(O)C(O)C(C)O3)C(O)C(C)O2)C(O)C(C)O1 (centres unmarked)
Result string: 11.5 nM

###

Items are presented alongside their recorded logP.
experiment: log P; format: physicochemical; settings: Table 2
Answer as a number with no unit attached.

Example results:
Compound	Recorded value
CO[C@H](C(=NOCCNC(=O)c1[nH]c2ccc(Cl)cc2c1-c1cnn(C)c1)[C@@H](O)[C@@H](C)O)[C@@H]1Cc2cc3cc(O[C@H]4C[C@@H](O[C@H]5C[C@@H](O)[C@H](O)[C@@H](C)O5)[C@H](O)[C@@H](C)O4)c(C)c(O)c3c(O)c2C(=O)[C@H]1O[C@H]1C[C@@H](O[C@H]2C[C@@H](O[C@H]3C[C@](C)(O)[C@H](O)[C@@H](C)O3)[C@@H](O)[C@@H](C)O2)[C@H](O)[C@@H](C)O1 [YL-C102]	2.26
CO[C@H](C(=NOCCNC(=O)c1[nH]c2ccc(Cl)cc2c1C1CC1)[C@@H](O)[C@@H](C)O)[C@@H]1Cc2cc3cc(O[C@H]4C[C@@H](O[C@H]5C[C@@H](O)[C@H](O)[C@@H](C)O5)[C@H](O)[C@@H](C)O4)c(C)c(O)c3c(O)c2C(=O)[C@H]1O[C@H]1C[C@@H](O[C@H]2C[C@@H](O[C@H]3C[C@](C)(O)[C@H](O)[C@@H](C)O3)[C@@H](O)[C@@H](C)O2)[C@H](O)[C@@H](C)O1 [YL-C124]	3.06
CO[C@H](C(=NOCc1ccc2scnc2c1)[C@@H](O)[C@@H](C)O)[C@@H]1Cc2cc3cc(O[C@H]4C[C@@H](O[C@H]5C[C@@H](O)[C@H](O)[C@@H](C)O5)[C@H](O)[C@@H](C)O4)c(C)c(O)c3c(O)c2C(=O)[C@H]1O[C@H]1C[C@@H](O[C@H]2C[C@@H](O[C@H]3C[C@](C)(O)[C@H](O)[C@@H](C)O3)[C@@H](O)[C@@H](C)O2)[C@H](O)[C@@H](C)O1 [YL-C52]	1.87

Query string: Identify measured logP corresponding to CO[C@H](C(=NOCCNC(=O)c1cc2cc(OC(F)(F)F)ccc2[nH]1)[C@@H](O)[C@@H](C)O)[C@@H]1Cc2cc3cc(O[C@H]4C[C@@H](O[C@H]5C[C@@H](O)[C@H](O)[C@@H](C)O5)[C@H](O)[C@@H](C)O4)c(C)c(O)c3c(O)c2C(=O)[C@H]1O[C@H]1C[C@@H](O[C@H]2C[C@@H](O[C@H]3C[C@](C)(O)[C@H](O)[C@@H](C)O3)[C@@H](O)[C@@H](C)O2)[C@H](O)[C@@H](C)O1 [YL-B171]
Result string: 2.93

Query string: Identify measured logP corresponding to CO[C@H](C(=NOCCNC(=O)c1[nH]c2ccc(Cl)cc2c1-c1ccc(Cl)cc1)[C@@H](O)[C@@H](C)O)[C@@H]1Cc2cc3cc(O[C@H]4C[C@@H](O[C@H]5C[C@@H](O)[C@H](O)[C@@H](C)O5)[C@H](O)[C@@H](C)O4)c(C)c(O)c3c(O)c2C(=O)[C@H]1O[C@H]1C[C@@H](O[C@H]2C[C@@H](O[C@H]3C[C@](C)(O)[C@H](O)[C@@H](C)O3)[C@@H](O)[C@@H](C)O2)[C@H](O)[C@@H](C)O1 [YL-C82]
Result string: 4.21
